# System: PDPK1
# condition.summary: concentration: 1 μM,replicates: in singlicate; n = 1;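 note: KINOMEscan kinase panel screen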
Each record here notes measured %Inh.
Give your result in % as a bare value.

Record excerpt, results attached:
| compound | assay.result |
| --- | --- |
| C[C@@H]1CCN(C(=O)CC#N)C[C@@H]1N(C)c1ncnc2[nH]ccc12 | 0 |
| Cl.Cl.NC[C@H](Cc1ccc(C(F)(F)F)cc1)NC(=O)c1cc(Br)c(-c2ccnc3[nH]ccc23)s1 | 0 |
| Cl.Cl.NC[C@H](CC1CCCCC1)NC(=O)c1cc(Br)c(-c2ccnc3[nH]ccc23)s1 | 0 |

For the compound shown here, `Cl.Oc1cc(-c2nc(-c3ccccc3)[nH]c2-c2ccncc2)ccc1Cl` , give the reported %Inh.
2

Now try `CCN(CC)CCOc1ccc(Nc2ncc3cc(-c4c(Cl)cccc4Cl)c(=O)n(C)c3n2)cc1` .
0

Now try `C[C@@H](Oc1cc(-c2cnn(C3CCNCC3)c2)cnc1N)c1c(Cl)ccc(F)c1Cl` .
14

Now try `C=CC(=O)Nc1cc2c(Nc3ccc(F)c(Cl)c3)ncnc2cc1OCCCN1CCOCC1` .
0

Now try `CN(C)CCOc1ccc(-c2cc(-c3c[nH]nc3-c3ccccn3)ccn2)cc1` .
15

Now try `Cc1cc2cn[nH]c2cc1-c1cccc2c(N)c(C(N)=O)nnc12` .
0

Now try `Cc1n[nH]c2ccc(-c3cc(OC[C@@H](N)Cc4ccccc4)cnc3-c3ccoc3)cc12.O=C(O)C(F)(F)F.O=C(O)C(F)(F)F` .
0

Now try `Cc1ccc2c(-c3ccncc3)c(-c3ccc(F)cc3)nn2c1.Cl` .
0

---

Each record here notes measured %Inh.
# Tested on: CHEK1
# condition.summary: concentration: 1 μM,replicates: in singlicate; n = 1
Give your result in % as a bare value.

Record excerpt, results attached:
| smiles.repr | assay.target | property.label | quantity.unit | assay.result |
| --- | --- | --- | --- | --- |
| CCN(CC)CCCCNc1ncc2cc(-c3c(Cl)cccc3Cl)c(NC(=O)NC(C)(C)C)nc2n1 | CHEK1 | %Inh | % | 0 |
| CN(C)CCOc1ccc(-c2cc(-c3c[nH]nc3-c3ccccn3)ccn2)cc1 | CHEK1 | %Inh | % | 0 |
| Cc1cc(C(=O)Nc2ccc(Oc3ccc4nc(NC(=O)C5CC5)cn4n3)cc2)nn1-c1ccccc1 | CHEK1 | %Inh | % | 0 |

Fill in the recorded %Inh for this compound, with CHEK1 as test system: `NC(=O)c1cc(-c2ccccc2)cc2c(C3CCNCC3)c[nH]c12`
20

---

Each record here notes measured %Inh.
# Tested on: GRK1
# condition.summary: concentration: 1 μM,replicates: in singlicate; n = 1
Give your result in % as a bare value.

| compound | %Inh [%] |
| --- | --- |
| Cc1cc(C(=O)Nc2ccc(Oc3ccc4nc(NC(=O)C5CC5)cn4n3)cc2)nn1-c1ccccc1 | 0 |

For the compound shown here, COc1ccc(C[C@@H](CN)NC(=O)c2cc(Br)c(-c3ccnc4[nH]ccc34)s2)cc1.Cl.Cl [GSK1389063] , give the reported %Inh.
99.8

Now try CCn1c(-c2nonc2N)nc2c(C#CC(C)(C)O)nc(OCCN)cc21.Cl.Cl [GSK902056] .
19

Now try O=C(NCCNc1ccnc(NCc2ccc(F)cc2)n1)c1cc2ccccc2s1 [GSK1379944] .
0

Now try Cl.Oc1cc(-c2nc(-c3ccccc3)[nH]c2-c2ccncc2)ccc1Cl [SB-386023] .
2

---

# System: RSK1(Kin.Dom.1-N-terminal)
# Construct: gene RPS6KA1
# condition.summary: concentration: 1 μM,replicates: in singlicate; n = 1
// label = criterion met if %Inh is not less than 4%, otherwise criterion not met

Some entries whose results are on file:
| compound | assay.target | group.label |
| --- | --- | --- |
| C[C@@H]1CCN(C(=O)CC#N)C[C@@H]1N(C)c1ncnc2[nH]ccc12 | RSK1(Kin.Dom.1-N-terminal) | criterion met |
| CN(C)CC(O)COc1ccc(Nc2nccc(-c3cnn4nc(N5CCOCC5)ccc34)n2)cc1 (stereo not drawn) | RSK1(Kin.Dom.1-N-terminal) | criterion met |
| C[C@H]1Oc2cc(cnc2N)-c2c(nn(C)c2C#N)CN(C)C(=O)c2ccc(F)cc21 | RSK1(Kin.Dom.1-N-terminal) | criterion not met |
| C=CC(=O)Nc1cc2c(Nc3ccc(F)c(Cl)c3)ncnc2cc1OCCCN1CCOCC1 | RSK1(Kin.Dom.1-N-terminal) | criterion not met |

Here is the next item to consider.
Hi team, for `O=C(NCCNc1ccnc(NCc2ccc(F)cc2)n1)c1cc2ccccc2s1` , is the recorded %Inh at or above 4%?
criterion met

---

# Tested on: KIT
# condition.summary: concentration: 1 μM,replicates: in singlicate; n = 1
property.label: %Inh (%)
Give your result in % as a bare value.

| compound | %Inh [%] |
| --- | --- |
| Cc1occc1-c1nc(N)c(OC[C@@H](N)Cc2c[nH]c3ccccc23)cc1-c1cc2c(C)n[nH]c2cn1 [GSK1660450] | 12 |
| Nc1nc(Nc2ccccc2)cc(-c2ccc3c(N)n[nH]c3c2)n1 [GSK2225749] | 0 |
| CC(C)N1C(=O)Cc2cc(Nc3ncc(C(F)(F)F)c(NCc4cccc(S(C)(=O)=O)c4)n3)ccc21 | 50 |
| Cl.Cl.NC[C@H](CC1CCCCC1)NC(=O)c1cc(Br)c(-c2ccnc3[nH]ccc23)s1 [GSK1581427] | 43 |

For the compound shown here, C=CC(=O)Nc1cc2c(Nc3ccc(F)c(Cl)c3)ncnc2cc1OCCCN1CCOCC1 [GW781483] , give the reported %Inh.
7

Now try `C[C@@H]1CCN(C(=O)CC#N)C[C@@H]1N(C)c1ncnc2[nH]ccc12` .
0

---

# Test system: PIK4CB
# Construct: gene PI4KB
# condition.summary: concentration: 1 μM,replicates: in singlicate; n = 1
property.label: %Inh (%)
Give your result in % as a bare value.

Record excerpt, results attached:
| smiles.repr | assay.target | %Inh [%] |
| --- | --- | --- |
| Cl.Oc1cc(-c2nc(-c3ccccc3)[nH]c2-c2ccncc2)ccc1Cl | PIK4CB | 14 |
| Cl.Cl.NC[C@H](Cc1ccc(C(F)(F)F)cc1)NC(=O)c1cc(Br)c(-c2ccnc3[nH]ccc23)s1 | PIK4CB | 0 |
| C[C@H]1Oc2cc(cnc2N)-c2c(nn(C)c2C#N)CN(C)C(=O)c2ccc(F)cc21 | PIK4CB | 0 |

In the following, a different compound is considered.
For the compound shown here, `CCn1c(-c2nonc2N)nc2c(C#CC(C)(C)O)nc(OCCN)cc21.Cl.Cl` , give the reported %Inh.
9

---

Each record here notes measured %Inh.
# Test system: HUNK
# condition.summary: concentration: 1 μM,replicates: in singlicate; n = 1
Give your result in % as a bare value.

| compound | %Inh [%] |
| --- | --- |
| CC(C)Nc1cc(-c2ccc3c(N)n[nH]c3c2)nc(N)n1 | 0 |
| NC(=O)c1cc(-c2ccccc2)cc2c(C3CCNCC3)c[nH]c12 | 0 |
| CN(C)CC(O)COc1ccc(Nc2nccc(-c3cnn4nc(N5CCOCC5)ccc34)n2)cc1 (centres unmarked) | 0 |
| Cl.Cl.Nc1nc(-c2ccc3c(N)n[nH]c3c2)cc(N2CCCC(NC(=O)c3ccccc3)C2)n1 (centres unmarked) | 0 |
| C[C@@H]1CCN(C(=O)CC#N)C[C@@H]1N(C)c1ncnc2[nH]ccc12 | 0 |
| C=CC(=O)Nc1cc2c(Nc3ccc(F)c(Cl)c3)ncnc2cc1OCCCN1CCOCC1 | 0 |

For the compound shown here, `Cl.Cl.NC[C@H](CC1CCCCC1)NC(=O)c1cc(Br)c(-c2ccnc3[nH]ccc23)s1` , give the reported %Inh.
0

Now try `CCN(CC)CCCCNc1ncc2cc(-c3c(Cl)cccc3Cl)c(NC(=O)NC(C)(C)C)nc2n1` .
10

Now try `Cc1n[nH]c2ccc(-c3cc(OC[C@@H](N)Cc4ccccc4)cnc3-c3ccoc3)cc12.O=C(O)C(F)(F)F.O=C(O)C(F)(F)F` .
9

Now try `Cl.Cl.NC[C@H](Cc1ccc(C(F)(F)F)cc1)NC(=O)c1cc(Br)c(-c2ccnc3[nH]ccc23)s1` .
0

Now try `CN(C)CCOc1ccc(-c2cc(-c3c[nH]nc3-c3ccccn3)ccn2)cc1` .
0

Now try `Cc1cc(C(=O)Nc2ccc(Oc3ccc4nc(NC(=O)C5CC5)cn4n3)cc2)nn1-c1ccccc1` .
0

Now try `C[C@H]1Oc2cc(cnc2N)-c2c(nn(C)c2C#N)CN(C)C(=O)c2ccc(F)cc21` .
19

Now try `COc1ccc(C[C@@H](CN)NC(=O)c2cc(Br)c(-c3ccnc4[nH]ccc34)s2)cc1.Cl.Cl` .
0

Values were extracted from paper PMC5540273.
